Where these numbers come from: ChEMBL document CHEMBL1201862

# System: SK-OV-3
# Protocol: NCI tumour cell line growth inhibition, 48 h
The source made the active and inactive calls. Rule as the data show it: active = GI50 up to about 1.1 µM and inactive = higher.
Measured metric: GI50

The examples below pair each entry with its known result.
Compound: COc1cc(OC)c(OC)cc1/C=C1\C=Cc2ccccc21
GI50: 19.7 µM (inactive)

Compound: CCN(CC)c1oc(N(CC)CC)c(C(=O)Nc2ccccn2)c(=O)c1C(C)=O
GI50: > 100 µM (inactive)

Compound: COc1cc(OCc2ccc3oc(=O)c(-c4ccccc4)nc3c2)cc(OC)c1OC
GI50: > 100 µM (inactive)

Compound: COc1cc(/C=C/c2ccc(O)c(OC)c2)cc(OC)c1
GI50: 26.9 µM (inactive)

Compound: COc1cc(O)c2c(=O)cc(C3(OC(C)=O)C=CC(OC4OC(CO)C(O)C(O)C4O)C=C3)oc2c1 (configuration not stated)
GI50: > 100 µM (inactive)

Batch of 6 compounds: report GI50 for each.
1. CN(C)c1ccc(-c2c(C#N)c(S)n(NS(=O)(=O)c3ccccc3)c(=O)c2C#N)cc1
2. O=C1C[C@H](c2ccccc2)O[C@@H](c2ccccc2)C1
3. CC1(C=O)CC(CCc2ccccc2)NC1Cc1ccc(O)cc1 (configuration not stated)
4. Cc1ccc(/N=C2\C(=O)C3=C(OC(C)(C)CC3)c3ccccc32)cc1
5. Cc1cc(O)c(C(C)C)cc1C1(c2cc(C(C)C)c(O)cc2C)OC(=O)c2ccccc21
6. CC(C)(O)C1CC[C@]2(C)[C@H]3CC[C@@H]4[C@@]5(C)CCCC(C)(C)[C@@H]5CC[C@@]4(C)[C@]3(C)CC[C@@H]12 (some centres not stated)

A.
["59.6 µM (inactive)", "> 100 µM (inactive)", "17.4 µM (inactive)", "1.57 µM (inactive)", "4.47 µM (inactive)", "> 100 µM (inactive)"]

====

For each of the compounds below, state its GI50.
# Tested on: LOX IMVI
# Protocol: NCI tumour cell line growth inhibition, 48 h
Activity calls are given as the source filed them. No stated cut-off is given here; in the data, active = GI50 up to about 1.1 µM and inactive = higher.

Compound: COP(=O)(C(/C=C/c1ccccc1)OC(C)=O)[C@@H]1CCCC[C@H]1N(CC(C)(C)C)C(C)=O (stereo not given in full)
GI50: 15.8 µM (inactive)

Compound: CC1(C)OCC(C2CCC3(C)C4=CCC5C(C)(C)C(O)CCC5(C)C4CCC23C)CC(O)C1O (stereo not given)
GI50: 17.1 µM (inactive)

Compound: [N-]=[N+]=CC(=O)OCC1SCCCS1
GI50: > 100 µM (inactive)

Compound: O=S(=O)(O)c1ccc(/N=N/c2ccc3c(S(=O)(=O)O)cccc3c2O)c2ccccc12
GI50: > 100 µM (inactive)

Compound: COc1cc(O)c2c(=O)cc(C3(OC(C)=O)C=CC(OC4OC(CO)C(O)C(O)C4O)C=C3)oc2c1 (stereo not given)
GI50: > 100 µM (inactive)

Batch of 3 compounds: report GI50 for each.
1. COc1cc2c(c3oc4c(O)cccc4c(=O)c13)CC(C(C)(O)CO)O2 (stereo not given)
2. O=C(O)[C@H](NS(=O)(=O)c1ccc([N+](=O)[O-])cc1)c1ccccc1
3. COCCc1c(C)c(C#N)c2n(C)c3ccccc3n2c1=O

A.
25 µM (inactive)
> 100 µM (inactive)
> 10 µM (inactive)

Batch of 2 compounds: report GI50 for each.
1. CCN(CC)CCOc1ccc(N2Cc3ccccc3C2=O)cc1
2. N=C(N)Nc1ccc(CC(N)C(=O)NCC(=O)C(CC(=O)O)c2ncc(NC(=O)C(F)(F)F)o2)cc1 (stereo not given)

A.
1. > 10 µM (inactive)
2. > 25 µM (inactive)
